The measured values listed here are drawn from patent US7671048B2.

# System under test: GABA A receptor α5β3γ2 (Homo sapiens, UniProt P18507+P31644)
# Construct: expressed in transfected cells; host or cells: HEK293 (transiently transfected), membranes
# Assay notes: [3H]flumazenil competition binding, human α5β3γ2
# Measurement context: HEK293 cell membranes, human (transiently transfected) receptor, 0.5 nM [3H]flumazenil, mean of two determinations; read-out: Ki[nM] hα5

>  <Structure>
CCOC(=O)c1ncn2c1Cn1ncnc1-c1cc(Br)ccc1-2

>  <Ki>
0.3 nM

$$$$
>  <Structure>
CC(=O)c1ncn2c1Cn1ncnc1-c1cc(F)ccc1-2

>  <Ki>
104 nM

$$$$
